Note to self: these compounds have IC50 reported for UniProtKB P08172 in various publications.
Sequence (P08172 whole entry): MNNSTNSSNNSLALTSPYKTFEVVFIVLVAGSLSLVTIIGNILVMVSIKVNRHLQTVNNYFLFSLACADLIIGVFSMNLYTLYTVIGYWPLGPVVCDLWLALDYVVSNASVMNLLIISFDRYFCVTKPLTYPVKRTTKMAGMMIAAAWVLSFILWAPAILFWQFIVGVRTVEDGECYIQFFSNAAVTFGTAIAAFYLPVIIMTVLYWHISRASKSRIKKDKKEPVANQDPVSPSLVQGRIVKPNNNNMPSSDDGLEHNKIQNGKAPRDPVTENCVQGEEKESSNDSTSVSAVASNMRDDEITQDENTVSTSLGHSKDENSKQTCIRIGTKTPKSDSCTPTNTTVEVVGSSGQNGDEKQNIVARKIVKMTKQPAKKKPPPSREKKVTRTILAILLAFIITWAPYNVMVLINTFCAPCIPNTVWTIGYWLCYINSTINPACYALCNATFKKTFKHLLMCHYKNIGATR

Solved entries (count: 3):
Kindly note the recorded IC50 for CC(C)=CCn1c(N2CCC[C@H](N)C2)nc2c1c(=O)n(CC(=O)c1ccccc1)c(=O)n2C , which is 0.15 µM

Reported IC50 of c1cnc2c(c1)CN[C@@H](CN(CCCCNC1COC1)[C@H]1CCCc3cccnc31)C2 : > 17 µM

The compound identified as Cn1c(=O)c2c(cc(N3CCC[C@@](C)(N)C3)n2Cc2cc(F)ccc2C#N)n(C)c1=O registered its IC50 at > 10 µM

---
IC50 reported for this compound O=C(Nc1ccccc1)N1CCCC(c2ccccc2)(C2CCN(Cc3ccc(Br)cc3)CC2)C1 (single isomer, unassigned; (-)) : > 10 µM

The compound Cc1c(C#Cc2ccc(CN3CCC(CO)CC3)cc2)cc(C(F)F)c2cn(C(C(=O)Nc3nccs3)c3ncn4c3CCC43CC3)nc12 (stereo unspecified) showed IC50 equal to 1.8 µM

Lab note: O=C1CCC(c2ccc(F)cc2F)(C2CCN(Cc3ccc(Br)cc3)CC2)C(=O)N1 (single isomer, unassigned; (-)) gave IC50 of > 10 µM
